system name: Human HER3, endogenous, on human cancer cell lines (SK-Br-3, MCF7, BT-474) (human, UniProt P21860 20-1342)
Sequence (P21860 20-1342): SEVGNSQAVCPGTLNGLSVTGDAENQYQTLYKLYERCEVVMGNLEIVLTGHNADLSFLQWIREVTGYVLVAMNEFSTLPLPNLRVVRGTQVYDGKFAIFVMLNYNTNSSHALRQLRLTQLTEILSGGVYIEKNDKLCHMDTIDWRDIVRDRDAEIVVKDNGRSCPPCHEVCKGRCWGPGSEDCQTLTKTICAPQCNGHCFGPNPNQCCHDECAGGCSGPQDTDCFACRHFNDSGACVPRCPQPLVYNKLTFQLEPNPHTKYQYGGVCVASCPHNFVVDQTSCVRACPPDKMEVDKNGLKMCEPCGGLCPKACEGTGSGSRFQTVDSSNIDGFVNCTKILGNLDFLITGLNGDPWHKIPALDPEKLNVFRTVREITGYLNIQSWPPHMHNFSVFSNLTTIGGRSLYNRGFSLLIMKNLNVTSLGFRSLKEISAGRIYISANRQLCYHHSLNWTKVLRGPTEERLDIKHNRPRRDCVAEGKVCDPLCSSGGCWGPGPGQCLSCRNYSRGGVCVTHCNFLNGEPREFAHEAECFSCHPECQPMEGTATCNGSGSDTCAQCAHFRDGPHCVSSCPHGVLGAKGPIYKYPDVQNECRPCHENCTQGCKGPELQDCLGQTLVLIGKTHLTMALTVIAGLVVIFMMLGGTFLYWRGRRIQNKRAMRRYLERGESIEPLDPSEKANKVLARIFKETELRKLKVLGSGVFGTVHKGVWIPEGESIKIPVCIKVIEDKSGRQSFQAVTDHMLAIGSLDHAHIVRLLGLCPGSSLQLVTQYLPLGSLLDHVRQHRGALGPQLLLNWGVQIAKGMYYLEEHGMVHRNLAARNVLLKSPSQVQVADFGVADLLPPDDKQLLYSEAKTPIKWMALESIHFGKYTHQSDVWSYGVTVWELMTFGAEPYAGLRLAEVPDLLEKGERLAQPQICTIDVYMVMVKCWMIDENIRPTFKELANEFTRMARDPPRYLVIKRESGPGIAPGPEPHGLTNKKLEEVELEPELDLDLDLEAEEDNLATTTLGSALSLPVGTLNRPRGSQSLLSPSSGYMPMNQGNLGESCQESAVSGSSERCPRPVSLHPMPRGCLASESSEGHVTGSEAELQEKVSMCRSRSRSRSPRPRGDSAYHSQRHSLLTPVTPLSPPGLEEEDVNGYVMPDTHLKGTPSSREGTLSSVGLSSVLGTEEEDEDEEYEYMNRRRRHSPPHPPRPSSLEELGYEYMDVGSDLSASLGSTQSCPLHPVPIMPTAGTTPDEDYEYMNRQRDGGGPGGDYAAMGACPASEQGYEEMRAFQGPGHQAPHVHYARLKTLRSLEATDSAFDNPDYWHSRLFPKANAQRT
method: cell-based or functional assay
observation type: SK-Br-3 pHER3 % inhibition (%)
Reply with just the number (in %).

Q: Request the reported SK-Br-3 pHER3 % inhibition associated with MOR12925 (antibody, human IgG1, kappa, V domains shown, tested as IgG) VH: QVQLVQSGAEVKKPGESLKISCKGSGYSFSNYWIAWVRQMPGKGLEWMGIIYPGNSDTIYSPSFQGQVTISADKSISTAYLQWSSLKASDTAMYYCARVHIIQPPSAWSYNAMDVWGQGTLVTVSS VL: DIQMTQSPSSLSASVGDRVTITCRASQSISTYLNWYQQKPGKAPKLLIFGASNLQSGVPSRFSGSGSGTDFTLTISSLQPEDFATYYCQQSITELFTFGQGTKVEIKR
Ans: 75

Q: Now the binder MOR12509 (antibody, human IgG1, kappa, V domains shown, tested as IgG) VH: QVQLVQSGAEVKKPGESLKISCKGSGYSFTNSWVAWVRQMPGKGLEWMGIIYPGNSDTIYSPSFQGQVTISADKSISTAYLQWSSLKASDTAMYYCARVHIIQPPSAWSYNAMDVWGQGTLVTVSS VL: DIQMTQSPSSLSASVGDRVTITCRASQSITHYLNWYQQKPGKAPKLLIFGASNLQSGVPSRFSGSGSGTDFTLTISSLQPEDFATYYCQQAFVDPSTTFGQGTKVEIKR
Ans: 76

Q: Now the binder MOR13755 (antibody, human IgG1, kappa, V domains shown, tested as IgG) VH: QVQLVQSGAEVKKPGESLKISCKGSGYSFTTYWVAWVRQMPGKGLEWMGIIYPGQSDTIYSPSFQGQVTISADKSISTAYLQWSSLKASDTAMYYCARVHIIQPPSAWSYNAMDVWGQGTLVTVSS VL: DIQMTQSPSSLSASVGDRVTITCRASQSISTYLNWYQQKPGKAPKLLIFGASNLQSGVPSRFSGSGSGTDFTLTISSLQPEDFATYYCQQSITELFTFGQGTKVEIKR
Ans: 80
